test system: Staph. aureus; experiment: Two-dimensional microtiter checkerboard, MIC and FIC of EDTA in 50 mM Tris and antibiotics; assay type: cell-based, Staphylococcus aureus; details: Staph. aureus; alone
For each of the compounds below, state its MIC, antibiotic individually administered.
Answers are plain numbers, in mg/mL.

// sample O=C(N[C@H](CO)[C@H](O)c1ccc([N+](=O)[O-])cc1)C(Cl)Cl [Chloramphenicol, chloramphenicol, reference compound] , its MIC, antibiotic individually administered was 0.39

Record NCC[C@H](O)C(=O)N[C@@H]1C[C@H](N)[C@@H](O[C@H]2O[C@H](CN)[C@@H](O)[C@H](O)[C@H]2O)[C@H](O)[C@H]1O[C@H]1O[C@H](CO)[C@@H](O)[C@H](N)[C@H]1O [Amikacin, amikacin, reference compound] , field MIC, antibiotic individually administered: 0.12

Summary for this compound, CN(C)[C@@H]1C(O)=C(C(N)=O)C(=O)[C@@]2(O)C(O)=C3C(=O)c4c(O)cccc4[C@@](C)(O)[C@H]3[C@H](O)[C@@H]12 [Oxytetracycline, oxytetracycline, reference compound] : MIC, antibiotic individually administered is 0.0001

Continue with the next compound.
Field MIC, antibiotic individually administered (entry CC1(C)S[C@@H]2[C@H](NC(=O)[C@H](N)c3ccccc3)C(=O)N2[C@H]1C(=O)O [Ampicillin, ampicillin, reference compound] ) reads 0.24

* * *

test system: Ent. faecalis; assay: Two-dimensional microtiter checkerboard, MIC and FIC of EDTA in 50 mM Tris and antibiotics; assay type: cell-based, Enterococcus faecalis; conditions: Ent. faecalis; alone
MEASUREMENT_TYPE: MIC, antibiotic individually administered (mg/L)
Give bare numbers, in mg/L.

For this molecule ( O=C(N[C@H](CO)[C@H](O)c1ccc([N+](=O)[O-])cc1)C(Cl)Cl [Chloramphenicol, chloramphenicol, reference compound] ), measured MIC, antibiotic individually administered is 400

Quick batch: MIC, antibiotic individually administered for everything below.
1. CN(C)[C@@H]1C(O)=C(C(N)=O)C(=O)[C@@]2(O)C(O)=C3C(=O)c4c(O)cccc4[C@@](C)(O)[C@H]3[C@H](O)[C@@H]12 [Oxytetracycline, oxytetracycline, reference compound]
2. CC1(C)S[C@@H]2[C@H](NC(=O)[C@H](N)c3ccccc3)C(=O)N2[C@H]1C(=O)O [Ampicillin, ampicillin, reference compound]
3. NCC[C@H](O)C(=O)N[C@@H]1C[C@H](N)[C@@H](O[C@H]2O[C@H](CN)[C@@H](O)[C@H](O)[C@H]2O)[C@H](O)[C@H]1O[C@H]1O[C@H](CO)[C@@H](O)[C@H](N)[C@H]1O [Amikacin, amikacin, reference compound]

Response line:
[50, 1, 2000]

Where these numbers come from: patent US6518252B2
